Hi there, I'd appreciate the recorded Res. Rt (Residual Rate) for every entry that follows.
- Test Description: Storage stability of acylcarnitine-stable isotopes in methanol solution at room temperature (Reference Example 1, LC-MS/MS residual rate)
- Assay type: physicochemical
- Settings: storage period 2 M (two months)
- Experimental: Acylcarnitine solutions were acquired by dissolving acylcarnitine-stable isotopes into methanol to concentrations listed in Table 3. The acylcarnitine-stable isotopes were measured under the following conditions. The acylcarnitine solutions were measured immediately before storage (prepared at the time of use) and after storage for predetermined periods, and the residual rate (%) was calculated from the acquired peak area ratio using Equation 2 described below. […]
One number for each entry, in %.

Answered examples (2):
- Compound: "[2H]C([2H])([2H])[N+](CC(CC(=O)[O-])OC(=O)CC(C)C)(C([2H])([2H])[2H])C([2H])([2H])[2H] (stereo not shown) [^2H9-Isovalerylcarnitine]"
  Property Measured: "Res. Rt (Residual Rate)"
  Numeric Result: 99.4
- Compound: "[2H]C([2H])([2H])[N+](C)(C)CC(CC(=O)[O-])OC(=O)CCCC(=O)O (stereo not shown) [^2H3-Glutarylcarnitine]"
  Property Measured: "Res. Rt (Residual Rate)"
  Numeric Result: 63.3

# return Res. Rt (Residual Rate) for each item in the list
1. [2H]C([2H])([2H])[N+](C)(C)CC(CC(=O)[O-])OC(=O)CC (stereo not shown) [^2H3-Propionylcarnitine]
2. [2H]C([2H])([2H])[N+](C)(C)CC(CC(=O)[O-])OC(=O)CCCCCCCCCCC (stereo not shown) [^2H3-Dodecanoylcarnitine]
3. [2H]C([2H])([2H])[N+](CC(CC(=O)[O-])OC(=O)CCCCCCCCCCCCC)(C([2H])([2H])[2H])C([2H])([2H])[2H] (stereo not shown) [^2H9-Myristoylcarnitine]
4. [2H]C([2H])([2H])[N+](C)(C)CC(CC(=O)[O-])OC(=O)CCCCCCCCCCCCCCC (stereo not shown) [^2H3-Palmitoylcarnitine]
5. [2H]C([2H])([2H])[N+](C)(C)CC(CC(=O)[O-])OC(=O)CCCCCCCCCCCCCCCCC (stereo not shown) [^2H3-Octadecanoylcarnitine]

[38.5, 84.9, 67.8, 62.6, 69.6]

* * *

- Test Description: Storage stability of acylcarnitine-stable isotopes in methanol solution at room temperature (Reference Example 1, LC-MS/MS residual rate)
- Type: physicochemical
- Settings: storage period 2 M (two months)
Hi there, I'd appreciate the recorded Res. Rt (Residual Rate) for every entry that follows.
One number for each entry, in %.

- Molecule: "[2H]C([2H])([2H])[N+](C)(C)CC(CC(=O)[O-])OC(=O)CC(C)(C)O (stereo not shown) [^2H3-(3-Hydroxyisovaleryl)-carnitine]"
  Res. Rt (Residual Rate) (%): 97.9
- Molecule: "[2H]C([2H])([2H])[N+](C)(C)CC(CC(=O)[O-])OC(=O)CCC (stereo not shown) [^2H3-Butyrylcarnitine]"
  Res. Rt (Residual Rate) (%): 63.8
- Molecule: "[2H]C([2H])([2H])[N+](C[C@H](O)CC(=O)[O-])(C([2H])([2H])[2H])C([2H])([2H])[2H] [^2H9-Carnitine]"
  Res. Rt (Residual Rate) (%): 100.2

Any idea what its Res. Rt (Residual Rate) is? The molecule is [2H]C([2H])([2H])[N+](C)(C)CC(CC(=O)[O-])OC(=O)CCCCCCC (stereo not shown) [^2H3-Octanoylcarnitine] 70.3
